# TEST SYSTEM: hAR (human androgen receptor, baculovirus/Sf9 generated extracts) (Homo sapiens)
# Construct: made in house; host or cells: baculovirus/Sf9 insect cells (crude extract)
# Sequence (P10275 whole entry): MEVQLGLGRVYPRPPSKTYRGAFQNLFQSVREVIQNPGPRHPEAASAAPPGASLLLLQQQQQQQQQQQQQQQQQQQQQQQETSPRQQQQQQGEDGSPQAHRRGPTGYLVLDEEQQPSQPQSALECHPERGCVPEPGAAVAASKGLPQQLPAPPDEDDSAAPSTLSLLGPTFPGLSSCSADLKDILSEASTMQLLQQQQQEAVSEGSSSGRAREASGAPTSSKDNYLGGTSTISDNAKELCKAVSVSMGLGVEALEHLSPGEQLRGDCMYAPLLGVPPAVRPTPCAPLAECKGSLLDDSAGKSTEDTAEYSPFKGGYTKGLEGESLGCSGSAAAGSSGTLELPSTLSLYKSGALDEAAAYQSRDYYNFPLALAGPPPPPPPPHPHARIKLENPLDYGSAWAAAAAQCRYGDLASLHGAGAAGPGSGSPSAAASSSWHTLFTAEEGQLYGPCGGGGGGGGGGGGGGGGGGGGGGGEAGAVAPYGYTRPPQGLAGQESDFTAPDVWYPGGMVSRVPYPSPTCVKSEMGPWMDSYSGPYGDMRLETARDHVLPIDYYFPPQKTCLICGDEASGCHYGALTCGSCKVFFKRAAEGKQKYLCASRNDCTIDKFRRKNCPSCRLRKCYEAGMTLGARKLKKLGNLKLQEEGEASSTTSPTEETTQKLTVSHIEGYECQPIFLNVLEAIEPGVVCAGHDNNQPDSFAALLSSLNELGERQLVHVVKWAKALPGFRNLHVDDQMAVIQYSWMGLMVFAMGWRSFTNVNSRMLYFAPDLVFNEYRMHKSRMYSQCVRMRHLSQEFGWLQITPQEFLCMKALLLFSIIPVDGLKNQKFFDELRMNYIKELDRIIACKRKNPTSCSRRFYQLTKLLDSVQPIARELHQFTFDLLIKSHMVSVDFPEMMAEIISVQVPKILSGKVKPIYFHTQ
# METHOD DESCRIPTION: AR Binding Assay (competitive binding with 3H-DHT tracer)
# CONDITIONS USED: hAR extract, 1 nM 3H-DHT, one hour at 4° C.; mean of multiple tests; read-out: AR Binding IC50
OBSERVATION TYPE: log10 IC50 (log10 of the value in nM)
Log10 applied to IC50; unit prior to transform: nM.

Inquiry: Which measured log10 IC50 value corresponds to `N#Cc1ccc(OCc2ccccc2)cc1C(F)(F)F` ?
Reply text: 2.24

Inquiry: What value of measured log10 IC50 is listed for Cc1cccc(C(CC(C)C)Oc2ccc(C#N)c(C(F)(F)F)c2)n1 (stereo not drawn) ?
Reply text: 2.22

Inquiry: // lookup log10 IC50 for N#Cc1ccc(OCC2COc3ccccc3O2)cc1Cl (stereo not drawn)
Reply text: 2.03

Inquiry: Query (compound): CC(Oc1ccc(C#N)c(C(F)(F)F)c1)c1cccc(OC2CCCCO2)c1 (stereo not drawn) ; field requested: log10 IC50
Reply text: 2.58

Inquiry: Form field: reported log10 IC50 of COc1cncc(C(C)Oc2ccc(C#N)c(C(F)(F)F)c2)c1 (stereo not drawn)
Reply text: 2.31

Inquiry: GET /values?readout=log10 IC50&item= `Cc1cccc(COc2ccc(C#N)cc2Cl)c1`
Reply text: 2.89

Inquiry: Would you mind telling me what log10 IC50 value was observed for COc1cc(OC(C)Cc2ccccc2)ccc1C#N (stereo not drawn) [Example 71A] ?
Reply text: 2.49

Inquiry: I would be grateful if you could share the reported log10 IC50 for `Cc1cccc(COc2ccc(C#N)c(C(F)(F)F)c2)c1` .
Reply text: 2.48

Inquiry: Which measured log10 IC50 value corresponds to Cc1ccccc1C(C)Oc1ccc(C#N)c(Cl)c1 (stereo not drawn) ?
Reply text: 1.72

Inquiry: State the recorded log10 IC50 for this entry: CCCCC(Oc1ccc(C#N)c(C(F)(F)F)c1)c1ccccn1 (stereo not drawn)
Reply text: 2.21

Inquiry: Which log10 IC50 is listed for COC(=O)c1ccc(C(C)Oc2ccc(C#N)c(C(F)(F)F)c2)cc1 (racemic) ?
Reply text: 2.01

Inquiry: Could you share which log10 IC50 value was measured for CCC(C)(Oc1ccc(C#N)c(Cl)c1)c1ccccc1 (stereo not drawn) ?
Reply text: 2.21

Inquiry: I am curious: what log10 IC50 value has been reported for CCC(C)(Oc1ccc(C#N)c(C(F)(F)F)c1)c1ccccc1 (stereo not drawn) ?
Reply text: 2.66

Inquiry: Reported log10 IC50, compound CC(Oc1ccc(C#N)c(C(F)(F)F)c1)c1cccc(C(F)(F)F)c1 (stereo not drawn) : ____
Reply text: 2.33

Inquiry: Sample CCCCCCC(Oc1ccc(C#N)c(C(F)(F)F)c1)c1ccccc1 (stereo not drawn) — what was its log10 IC50?
Reply text: 2.31

Inquiry: Form field: reported log10 IC50 of Cc1cccc(C)c1C(C)Oc1ccc(C#N)c(Cl)c1 (stereo not drawn)
Reply text: 2.52

Inquiry: I am curious: what log10 IC50 value has been reported for CC(Oc1ccc(C#N)c(C(F)(F)F)c1)c1ccccc1C(F)(F)F (stereo not drawn) ?
Reply text: 2.16

Inquiry: Which log10 IC50 reading was recorded for the compound `N#Cc1ccc(OCc2ccccc2)cc1Cl` ?
Reply text: 1.58

Inquiry: Look up log10 IC50: CCC(Oc1ccc(C#N)c(C(F)(F)F)c1)c1cccnc1 (stereo not drawn)
Reply text: 2.22

Inquiry: If you can, please state the reported log10 IC50 value of `CC(C)(Oc1ccc(C#N)cc1Cl)c1ccccc1` .
Reply text: 2.26

Inquiry: Could you share which log10 IC50 value was measured for COc1cc(OCCc2cccc(F)c2)ccc1C#N [Example 71B] ?
Reply text: 2.19
